Entries annotated with measured IC50
Molecular target: JAK2 kinase activity on STAT5 in TF1 cells (Homo sapiens)
Sequence (O60674 whole entry): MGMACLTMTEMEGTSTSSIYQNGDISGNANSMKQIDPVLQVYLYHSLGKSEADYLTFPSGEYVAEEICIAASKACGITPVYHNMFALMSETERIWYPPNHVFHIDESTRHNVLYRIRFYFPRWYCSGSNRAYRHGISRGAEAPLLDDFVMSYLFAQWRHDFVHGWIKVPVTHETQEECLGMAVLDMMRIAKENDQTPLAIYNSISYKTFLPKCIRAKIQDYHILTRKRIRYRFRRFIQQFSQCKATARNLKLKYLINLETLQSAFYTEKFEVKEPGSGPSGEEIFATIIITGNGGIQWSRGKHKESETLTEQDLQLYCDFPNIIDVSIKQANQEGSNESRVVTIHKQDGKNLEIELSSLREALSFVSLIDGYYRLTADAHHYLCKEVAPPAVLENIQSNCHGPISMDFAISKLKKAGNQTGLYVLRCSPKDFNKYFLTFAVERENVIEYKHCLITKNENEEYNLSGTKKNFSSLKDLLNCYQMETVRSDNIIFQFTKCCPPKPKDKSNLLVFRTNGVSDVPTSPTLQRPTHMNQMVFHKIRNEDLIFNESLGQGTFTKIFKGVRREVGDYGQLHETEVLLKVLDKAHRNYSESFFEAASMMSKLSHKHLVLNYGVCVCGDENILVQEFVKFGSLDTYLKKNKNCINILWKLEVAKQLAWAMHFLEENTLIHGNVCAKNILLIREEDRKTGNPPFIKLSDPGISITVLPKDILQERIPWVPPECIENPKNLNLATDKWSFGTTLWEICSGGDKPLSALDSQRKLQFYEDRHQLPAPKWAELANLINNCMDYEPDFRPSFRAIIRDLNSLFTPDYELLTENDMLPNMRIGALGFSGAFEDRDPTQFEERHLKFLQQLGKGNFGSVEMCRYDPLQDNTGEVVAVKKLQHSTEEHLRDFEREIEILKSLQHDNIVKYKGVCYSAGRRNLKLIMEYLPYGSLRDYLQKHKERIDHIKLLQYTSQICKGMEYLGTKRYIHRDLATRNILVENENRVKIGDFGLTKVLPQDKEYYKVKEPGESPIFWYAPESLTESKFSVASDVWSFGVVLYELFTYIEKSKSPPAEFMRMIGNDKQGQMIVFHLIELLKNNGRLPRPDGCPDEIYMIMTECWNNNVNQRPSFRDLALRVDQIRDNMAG
Assay: pSTAT5 cell assay (MSD; TF1 cells, 30 ng/mL IL-3 stimulation)
Settings: 30 ng/mL IL-3, 15 minutes
Where a name gives a salt, the structure may show the parent alone.

Prompt: Please report the measured IC50 for C[C@@H]1CN(c2ccnn3cc(-c4cccc5cncn45)cc23)C(=O)[C@]1(C#N)C1CC1 [Example 128, trifluoroacetate]
Completion: > 10 µM

Prompt: Identify measured IC50 associated with C[C@@H]1CN(c2ccnn3cc(-c4cc[nH]n4)cc23)C(=O)[C@]1(C#N)C1CC1 [Example 66, trifluoroacetate]
Completion: > 10 µM

Prompt: Give the reported value of IC50 for this record: C[C@@H]1CN(c2cc(-c3cnn(C)c3)cn3nccc23)C(=O)[C@]1(C#N)C1CC1
Completion: > 10 µM

----------
Biological target: human TYK2 kinase domain (JH1) (Homo sapiens, UniProt P29597)
Construct: recombinantly generated catalytic kinase (also known as JH1) domain of human JAK1, JAK2, JAK3 and TYK2
Sequence (P29597 897-1176 limits assumed): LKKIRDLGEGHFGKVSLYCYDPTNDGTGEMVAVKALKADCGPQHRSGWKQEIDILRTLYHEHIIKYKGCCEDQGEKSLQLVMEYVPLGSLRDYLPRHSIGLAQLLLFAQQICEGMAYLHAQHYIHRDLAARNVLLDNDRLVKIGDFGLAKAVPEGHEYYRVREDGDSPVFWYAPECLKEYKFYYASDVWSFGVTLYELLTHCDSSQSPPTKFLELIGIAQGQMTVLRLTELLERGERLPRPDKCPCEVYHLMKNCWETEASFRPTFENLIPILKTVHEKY
Assay: JH1 biochemical assay for TYK2 (ADP-Glo kinase assay, recombinant JH1 catalytic domain, JAK3-974 peptide, 10 μM ATP)
Conditions: JH1 kinase domain, ADP-Glo
Where a name gives a salt, the structure may show the parent alone.
Measured IC50, listed per entry for reference.

Prompt: Given [2H]C([2H])([2H])n1cc(-c2cn3ncc(F)c3c(N3C[C@@H](C)[C@@](C#N)(C4CC4)C3=O)n2)cn1 , respond with its IC50.
Completion: < 5 nM

Prompt: Retrieve IC50 measured for C[C@H]1CN(c2ccnn3cc(-c4cnn(C)c4)cc23)C(=O)[C@]1(C#N)C1CC1 and print it.
Completion: 50 to 100 nM

Prompt: Retrieve IC50 measured for C[C@@H]1CN(c2ccnn3cc(-c4cnn(C(F)F)c4)cc23)C(=O)[C@]1(C#N)C1CC1 and print it.
Completion: < 5 nM

Prompt: Supply IC50 value. Item: Cc1cncc(-c2cc3c(N4C[C@@H](C)[C@@](C#N)(C5CC5)C4=O)ccnn3c2)c1
Completion: 5 to 20 nM

Prompt: Report measured IC50; entry is C[C@@H]1CN(c2ccnn3cc(-c4cnn(C5CC5)c4)cc23)C(=O)[C@]1(C#N)C1CC1
Completion: < 5 nM

Prompt: Return value of IC50 for input Cc1cc(-c2cc3c(N4C[C@@H](C)[C@@](C#N)(C5CC5)C4=O)ccnn3c2)ncc1C#N [Example 144, trifluoroacetate] , no commentary.
Completion: 20 to 50 nM

Prompt: Using the record for COc1cc(-c2cc3c(N4C[C@@H](C)[C@@](C#N)(C5CC5)C4=O)ccnn3c2)c(F)cn1 , state its measured IC50.
Completion: 20 to 50 nM

Prompt: // fetch IC50 given entry Cc1cnc(-c2cc3c(N4C[C@@H](C)[C@@](C#N)(C5CC5)C4=O)ccnn3c2)s1 [Example 118, trifluoroacetate]
Completion: 5 to 20 nM

----------
Molecular target: human JAK3 kinase domain (JH1) (Homo sapiens, UniProt P52333)
Construct: recombinantly generated catalytic kinase (also known as JH1) domain of human JAK1, JAK2, JAK3 and TYK2
Sequence (P52333 822-1111 limits assumed): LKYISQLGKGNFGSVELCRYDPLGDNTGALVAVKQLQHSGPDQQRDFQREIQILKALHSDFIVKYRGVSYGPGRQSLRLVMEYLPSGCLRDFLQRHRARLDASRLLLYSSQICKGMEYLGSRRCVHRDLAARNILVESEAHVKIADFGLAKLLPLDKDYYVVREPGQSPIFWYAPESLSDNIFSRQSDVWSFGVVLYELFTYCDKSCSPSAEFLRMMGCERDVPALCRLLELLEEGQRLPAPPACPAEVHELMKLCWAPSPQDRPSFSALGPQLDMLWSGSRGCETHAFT
Test: JH1 biochemical assay for JAK3 (ADP-Glo kinase assay, recombinant JH1 catalytic domain, JAK3-974 peptide, 4 μM ATP)
Conditions: JAK3 JH1, ADP-Glo
pIC50: −log10 of the molar value. Counter-ions that a name gives are not always drawn.
measuredParameter: pIC50

These recorded examples may help you get a feel for the data.
| compound | measuredParameter | observedValue |
| --- | --- | --- |
| C[C@@H]1CN(c2nc(-c3cnc4c(c3)OCC(=O)N4C)cn3nccc23)C(=O)[C@]1(C#N)C1CC1 [Example 235, trifluoroacetate] | pIC50 | 6.00 to 7.00 |
| Cc1cn(-c2cc3c(N4C[C@@H](C)[C@@](C#N)(C5CC5)C4=O)ccnn3c2)cn1 [Example 341] | pIC50 | 6.00 to 7.00 |
| C[C@@H]1CN(c2ccnn3cc(-c4cnn(C5CC6(COC6)C5)c4)cc23)C(=O)[C@]1(C#N)C1CC1 [Example 319] | pIC50 | > 7.00 |

Prompt: Tell me its pIC50 given C[C@@H]1CN(c2nc(-c3ccc(F)nc3)cn3nccc23)C(=O)[C@]1(C#N)C1CC1 [Example 243, trifluoroacetate] as the entry.
Completion: 5.30 to 6.00

Prompt: Please look at this compound and report its pIC50: C[C@@H]1CN(c2cc(-c3cnn(C(F)F)c3)cc3ncsc23)C(=O)[C@]1(C#N)C1CC1 [Example 349]
Completion: > 7.00

Prompt: Give pIC50 for the following compound: C[C@@H]1CN(c2nc(-c3cnc(N(C)C)nc3)cn3nccc23)C(=O)[C@]1(C#N)C1CC1 [Example 264, trifluoroacetate]
Completion: 6.00 to 7.00

Prompt: Name the recorded pIC50 of the item C[C@@H]1CN(c2nc(-c3cnn(C4(C)COC4)c3)cn3ncc(F)c23)C(=O)[C@]1(C#N)C1CC1 [Example 300] in your answer.
Completion: > 7.00
